EXPERIMENTAL TARGET: Short transient receptor potential channel 6 (Mus musculus)
ASSAY: mouse TRPC6 channel activators, primary screen, cell-based, HEK293, membrane potential dye (AID 2550);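 also: higher score means more depolarization so channel activation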
EXPERIMENTAL CONTEXT: HEK293-TRPC6 membrane potential dye fluorescence, at 10 µM
Among all 310,000 compounds or so, about 380 (0.12%) were called active.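 The calls were made as follows: active = B-score of the integrated fluorescence ratio above library mean plus 3 SD, and starting fluorescence ratio within library mean plus 5 SD; inactive = the rest.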 For the sample, actives were picked, then their nearest neighbours and some compounds at random.
Permitted responses: Yes (active), No (inactive)

See these solved cases before continuing.
| MOLECULE | ASSIGNED CLASS |
| --- | --- |
| Nc1ccc(Cl)c(S(=O)(=O)Nc2ccccc2Cl)c1 | No |
| Cc1cc(/C=N/n2cnnc2)c(C)n1-c1ccc2ncccc2c1 | No |
| CCOC(=O)CC1C(=O)NCCN1c1nc2c(C)cccn2c(=O)c1/C=C1\SC(=S)N(C(C)CC)C1=O (stereo not drawn) | Yes |
| CCOC(=O)c1nc(-c2ccc3c(c2)OCO3)[nH]c1C | No |
| COCC1CCN(C(=O)C2CCC(=O)N(Cc3cccc(C(F)(F)F)c3)C2)CC1 (stereo not drawn) | No |
| CC(=O)c1ccc(NC(=O)C(C)NCc2ccc(Cl)cc2)cc1 (stereo not drawn) | No |
| CN1CCN(c2cc3c(cc2F)c(=O)c(C(=O)O)cn3CCF)CC1 | No |

For the next question, use this molecule.
Prompt line: Tell me the assay call for Cc1cc2c(cc1C)[n+](C)cn2CC(O)COCC1CC=CCC1 (stereo not drawn) please.
Response line: No
